solubility values for the molecules below.
assay: Solubility of compound at pH 7; format: physicochemical; details: buffer
READOUT_KIND: solubility (µM)

> print(dat)
                                   molecule  experimental.value
1  Cn1nc(C(N)=O)c2c1-c1nc(Nc3cc(NC(=O)[C@@H]4CCCN4)ccc3OC(F)(F)F)ncc1CC2                  79
2  CN1CC=C(c2ccc(OC(F)(F)F)c(Nc3ncc4c(n3)-c3c(c(C(N)=O)nn3C)CC4)c2)CC1                 148
3  CN1CCN(c2ccc(OC(F)(F)F)c(Nc3ncc4c(n3)-c3c(c(C(N)=O)nn3CCOC3CCCCO3)CC4)c2)CC1 (stereo not drawn)                  35
